Assay: Kinetic solubility of the compound at pH 7.4 by chemiluminescence nitrogen detection method
Assay type: physicochemical
Conditions: buffer, read-out: Kinetic_solubility
Assign log10(solubility kinetic) to each entry below.
Log scale reminder: solubility kinetic in µM, then log10 taken.

Known results for compounds:
> print(dat)
                         compound.structure  obs.value
1  Cc1cc2nccc(-c3ccccc3C(=O)O)c2c(C)c1-c1ccc(CN2CCOCC2)cc1       2.35
2  Cc1cc2nc(C(=O)O)cc(-c3ccccc3Cl)c2c(C)c1-c1ccncc1       2.35
3  Cc1cc2nccc(-c3ccccc3Cl)c2c(C)c1-c1ccncc1       1.32
4  COc1ccncc1-c1ccnc2cc(C)c(-c3ccc(CN4CCOCC4)cc3)c(C)c12       2.23
5  Cc1cc2nccc(-c3ccnn3C)c2c(C)c1-c1ccc(CN2CCOCC2)cc1       2.39

Consider the following items and state reported log10(solubility kinetic) for each.
1. Cc1cc2nc(C(=O)NCCO)cc(-c3ccccc3Cl)c2c(C)c1-c1ccncc1
2. Cc1cc2nc(C(=O)N(C)C)cc(-c3ccccc3Cl)c2c(C)c1-c1ccncc1
3. Cc1cc2nc(C(=O)N3CCCC3)cc(-c3ccccc3Cl)c2c(C)c1-c1ccncc1
4. COc1ncccc1-c1ccnc2cc(C)c(-c3ccc(CN4CCOCC4)cc3)c(C)c12

1. 1.40
2. 2.20
3. 1.61
4. 0.00

Report log10(solubility kinetic) for every entry below.
1. Cc1cc2nccc(-c3ccccc3C#N)c2c(C)c1-c1ccc(CN2CCOCC2)cc1
2. COc1cccc(-c2ccnc3cc(C)c(-c4ccc(CN5CCOCC5)cc4)c(C)c23)c1Cl
3. Cc1cc2nccc(-c3cccc(Cl)c3)c2c(C)c1-c1ccc(CN2CCOCC2)cc1
4. Cc1cc2nc(CO)cc(-c3ccccc3Cl)c2c(C)c1-c1ccncc1
5. CCOC(=O)c1cc(-c2ccccc2Cl)c2c(C)c(-c3ccncc3)c(C)cc2n1
6. CNC(=O)c1cc(-c2ccccc2Cl)c2c(C)c(-c3ccncc3)c(C)cc2n1
7. Cc1cc2nc(C(=O)N3CCOCC3)cc(-c3ccccc3Cl)c2c(C)c1-c1ccncc1
8. Cc1cc2nc(C(=O)NC(C)C)cc(-c3ccccc3Cl)c2c(C)c1-c1ccncc1

1: 1.38; 2: 0.30; 3: 0.00; 4: 1.51; 5: 0.95; 6: 1.18; 7: 2.16; 8: 0.60
